assay_comment: VP16 counterscreen qHTS for inhibitors of ROR gamma transcriptional activity;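 note: Gal4-VP16 expression switched on by copper sulfate through the metallothionein promoter; nearly all actives have a fitted effect of over 50% in size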
measurement_setup: Drosophila S2 Gal4-VP16 UAS-luciferase, luminescence, 20 h; series mostly up to 53.6 µM
Method: NIH Molecular Libraries Probe Production Network [MLPCN] NIH Chemical Genomics Center [NCGC] Assay Provider: Dan Littman, New York University […] For screening, 600 cells in 4 uL/well were dispensed into white solid 1536-well plates (Grenier) using a solenoid-based dispenser. […] After addition of 1.5 uL Photinus luciferase detection reagent, the plates were incubated 10 min at ambient temperature and then read by a ViewLux (Perkin Elmer) to detect luminescence.
The campaign covered roughly 310,000 compounds. About 11,000 (3.5%) were called active. Inconclusive results (about 8%) are left out. Calls come from the whole dose curve; as a rule, active = well fitted inhibition curve with a large enough effect; inconclusive = small, poorly fitted or top-dose-only effect, or effect the other way; inactive = flat fitted curve, though single readings scatter. Many of the other results were omitted from the sample, so actives are more common in it than they were.
Classes to choose from: active, inactive

What outcome does the record of this test show for `O=C(Nc1ccccc1)c1ccco1` ?
inactive

What outcome does the record of this test show for CCCc1cc(C(=O)N2CCCC(CO)(CCCc3ccccc3)C2)n(C)n1 (stereo not drawn) ?
inactive

What outcome does the record of this test show for `Cc1ccc(NS(=O)(=O)c2ccc3c(c2)oc(=O)n3C)c(C)c1` ?
inactive

What outcome does the record of this test show for `Fc1ccc(/C=N/Nc2nc(-c3cccnc3)nc3ccccc23)cc1` ?
inactive

What outcome does the record of this test show for `O=[N+]([O-])c1c(NCCO)cc(Sc2nc3ccccc3s2)c2nonc12` ?
active

Field: next molecule
What outcome does the record of this test show for `COc1ccccc1-c1sc2ccccc2c1-c1ccc(C(C)=O)cc1` ?
inactive

// provenance: PubChem BioAssay AID2546
